Field: z-score. Provide a value for each of the molecules that follow.
test: CREB reporter modulators without forskolin, primary screen, cell-based, PC12, CRE-LacZ reporter, unstimulated (AID 1145); details: no forskolin, luminescence, 4.5 h, higher = more signal, called active from +8 up or from −8 down
# respond with the number and nothing more

Quick one: z-score for C[C@H]1C2[C@H](Cc3ccccc3)NC(=O)[C@]23C(=O)NCC(=O)N2CCC[C@H]2C(=O)NC/C=C\C/C=C/C3[C@@H]2O[C@]12C (some centres not stated) ? 0.495

Quick one: z-score for COCCOC(=O)N1C(=O)[C@@]2(c3cc(C#CC4(O)CCCCCC4)ccc31)[C@H](c1ccc(OCCO)cc1)N1[C@H](c3ccccc3)[C@H](c3ccccc3)OC(=O)[C@H]1[C@@H]2C(N)=O ? 0.468

Quick one: z-score for COC(=O)[C@@]1(Cc2ccc(OC)cc2)[C@H]2c3cc(C(=O)N(C)C)n(Cc4ccsc4Br)c3C[C@H]2CN1C(=O)c1ccccc1 ? 0.597

Quick one: z-score for CCOC(=O)C1=CC[C@@H](c2ccc(F)cc2)N(S(=O)(=O)c2ccc(C)cc2)[C@H]1c1ccc([N+](=O)[O-])cc1 ? -1.73

Quick one: z-score for CC(C)C(=C=CC[C@@H](O)c1cccc(OCCO)c1)CCO ? 1.37

Quick one: z-score for CC(C)C[C@@H]1NC(=O)[C@H]2C[C@@H](C(=O)NCCCCCNC(=O)CS)[C@@H](c3ccc(O)cc3)N2C1=O ? 0.135

Quick one: z-score for CCCC=C(CCC)[C@@H](NC(=O)c1ccco1)c1ccc(C(=O)OC)cc1 ? 0.0143

----------
assay: small-molecule binders of probe aLefty1, primary screen, biochemical, small-molecule microarray, 635/667 nm fluorescence (AID 1153); conditions: higher = more signal;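 also: score merges spot fluorescence with signal-to-noise ratio from the scanned slide images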
Reported metric: composite z-score
# respond with the number and nothing more

Quick one: composite z-score for COc1cc2c(cc1O)C(C1CC1)N(Cc1ccc([N+](=O)[O-])o1)CC2 (stereo not drawn) ? 0.0446

Quick one: composite z-score for C=C(COC)C(=O)CC[C@@H](OC(=O)c1cccnc1)c1cccc(OCCO)c1 ? 0.571

Quick one: composite z-score for C=CCNC(=O)[C@@H]1[C@H]2C(=O)O[C@H](c3ccccc3)[C@H](c3ccccc3)N2[C@H](c2ccccc2OCCO)[C@@]12C(=O)N(C(=O)OCCOC)c1ccc(C#CCCO)cc12 ? 0.209

Quick one: composite z-score for COCCOC(=O)N1C(=O)[C@@]2(c3cc(C#CC4(O)CCCCCC4)ccc31)[C@H](C(=O)N1CCc3cc(OC)c(OC)cc3C1)[C@H]1C(=O)O[C@H](c3ccccc3)[C@H](c3ccccc3)N1[C@@H]2c1ccc(O)cc1 ? 0.176

Quick one: composite z-score for CCN(CC)c1ccc(N2CC=CC34O[C@@H]5C=CCOC(=O)[C@@H]5[C@H]3C(=O)N(CCO)[C@@H]4C2=O)cc1 (stereo partly drawn) ? 0.0434

Quick one: composite z-score for C=C(/C(=C/C[C@@H](OC(C)=O)c1ccccc1OCCO)c1cc(C(=O)OC)ccc1OC)C(C)C ? -0.0545

Quick one: composite z-score for COC(=O)C(CC#Cc1ccc2c(c1)[C@]1(C(=O)N2)[C@H](c2ccc(O)cc2)N2[C@H](c3ccccc3)[C@H](c3ccccc3)OC(=O)[C@H]2[C@@H]1C(=O)N1CCc2cc(OC)c(OC)cc2C1)C(=O)OC ? 0.156

Quick one: composite z-score for COC(=O)C1=CC(CCCO)=CC(C2CC2)N(Cc2cccc(OC(F)(F)F)c2)C=C1C(=O)OC (stereo not drawn) ? 0.193

Quick one: composite z-score for C=C(CCCC)C(=O)CC[C@H](OC(=O)c1cccnc1)c1ccc(CO)o1 ? 0.3

Quick one: composite z-score for CC(C)CNC(=O)[C@@H]1c2ccccc2C(=O)N(C(C)C)[C@H]1c1ccc(CO)cc1 ? -0.0559

Quick one: composite z-score for COCCCNC(=O)[C@@]1(Sc2ccc(C)cc2)CC(=O)N(C2CCCCC2)[C@@H]1c1ccc(CO)cc1I ? -0.649

Quick one: composite z-score for CC(=O)NCCCC[C@@H]1NC(=O)[C@H]2C[C@@H](C(=O)NCCCCCC[N+](C)(C)C)[C@@H](c3ccc(O)cc3)N2C1=O ? 0.0262

Quick one: composite z-score for COc1cc2c(cc1O)C(c1ccc(CN3CCCC3)cc1)N(Cc1cccc(OC(F)(F)F)c1)CC2 (stereo not drawn) ? -0.131

Quick one: composite z-score for CCCCC(O)C1C=CC2C(=O)N(C)C(=O)C2N1Nc1ccccc1 (stereo not drawn) ? 0.165

Quick one: composite z-score for CCOC(=O)C1=C[C@@H](C(C)(C)C)N(S(=O)(=O)c2ccc(C)cc2)[C@H]1c1ccccc1Cl ? 0.208

Quick one: composite z-score for C=CCC(OC(C)=O)[C@@H]1[C@@H](N(Cc2ccc(-c3cccc(C(F)(F)F)c3)o2)C(=O)Cc2ccc(F)cc2)c2cc(OCCCO)ccc2N1C(=O)c1ccc2ccccc2n1 (stereo partly drawn) ? -0.024

Quick one: composite z-score for CN(C)CCCC[C@@H]1NC(=O)[C@@H]2C[C@H](C(=O)NCc3ccc(F)cc3)[C@H](c3ccc(O)cc3)N2C1=O ? -0.0501

Quick one: composite z-score for COC(=O)[C@@]1(Cc2ccc(F)cc2)[C@H]2c3cc(C(=O)N(C)C)n(CCO)c3C[C@H]2CN1C(=O)c1ccccc1 ? 0.0774

----------
Field: composite z-score. Provide a value for each of the compounds that follow.
system: PRMT1 (protein arginine N-methyltransferase 1); assay: PRMT1 binders on small-molecule microarrays, primary screen, biochemical, small-molecule microarray, 635 nm fluorescence (AID 1088); settings: small-molecule microarray binding, higher = more signal;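 also: binding of Prmt1 protein to compounds spotted on small-molecule microarray slides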
# respond with the number and nothing more

Quick one: composite z-score for COC(=O)[C@@]1(Cc2ccc(OC)cc2)[C@H]2c3cc(C(=O)N4CCCC4)n(CCc4ccc(OC)c(Br)c4)c3C[C@H]2CN1C(=O)c1ccccc1 ? -1.11

Quick one: composite z-score for CN1C(=O)C2C=CC(C(O)c3ccc(-c4ccccc4)s3)N(Nc3ccccc3)C2C1=O (configuration not stated) ? 0.932

Quick one: composite z-score for O=C1C2C=CC(C(O)C(c3ccccc3)c3ccccc3)N(Nc3ccccc3)C2C(=O)N1c1ccccc1 (configuration not stated) ? 1.55

Quick one: composite z-score for C=CCN1C(=O)[C@]2(O[C@H](CCn3cc([C@H](O)c4ccccc4)nn3)[C@@H]([Si](C)(C)c3ccc(OC)cc3)[C@@H]2C)c2cc(N3C(=O)c4cccc5cccc3c45)ccc21 ? 0.755

Quick one: composite z-score for CC(=O)NCCCC[C@@H]1NC(=O)[C@H]2C[C@@H](C(=O)NCCCCCC[N+](C)(C)C)[C@@H](c3ccc(O)cc3)N2C1=O ? 1.55

Quick one: composite z-score for CC(C)C(=C=CC[C@@H](O)c1ccc(OCCO)cc1)CCO ? 0.693

Quick one: composite z-score for CC(C)C(=C=CC[C@@H](O)c1cccc(OCCO)c1)CCO ? -0.102

Quick one: composite z-score for COCC(=C=CC[C@@H](O)c1ccc(OCCO)cc1)C[C@@H](O)COCc1ccccc1 ? 1.55

Quick one: composite z-score for COCCOC(=O)N1C(=O)[C@@]2(c3cc(C#CC4(O)CCCCCC4)ccc31)[C@H](c1ccc(OCCO)cc1)N1[C@H](c3ccccc3)[C@H](c3ccccc3)OC(=O)[C@H]1[C@@H]2C(=O)N1CCCCCCC1 ? 1.55

Quick one: composite z-score for CCCC[C@@H]1C[C@H]1[C@@H](NC(=O)c1ccc(C(F)(F)F)cc1)c1ccc(C(=O)OC)cc1 ? 0.715

Quick one: composite z-score for CC(C)(C)OC(=O)CC[C@]1(C(N)=O)N=C(c2ccc(OCCCO)cc2)O[C@H]1c1ccccc1CN=[N+]=[N-] ? 1.15

Quick one: composite z-score for NC(=O)N1C(=O)C2C(C1=O)C1C=C(CCCO)C2C(c2ccc(CN3CCCC3)cc2)N1Cc1cccc(OC(F)(F)F)c1 (configuration not stated) ? 1.33

Quick one: composite z-score for CCCC[C@H]1OB(O)C[C@H]2C1=C(C)C[C@H]1C(=O)C=CC(=O)[C@H]12 ? 1.24

Quick one: composite z-score for CC(C)C[C@@H]1NC(=O)[C@H]2C[C@@H](C(=O)NCCCCCNC(=O)CS)[C@@H](c3ccc(O)cc3)N2C1=O ? 1.54

Quick one: composite z-score for Cc1c(NC(=O)/C(C#N)=C/c2ccc(Cl)cc2)c(=O)n(-c2ccccc2)n1C ? 0.505

Quick one: composite z-score for [N-]=[N+]=NCc1ccccc1C[C@]1(C(=O)O)COC(c2ccc(OCCCO)cc2)=N1 ? -0.486

Quick one: composite z-score for C=CC[C@@]12N=C(c3ccc(OCCCO)cc3)O[C@@H]1c1ccccc1N(Cc1ccccc1)C2=O ? 1.54

Quick one: composite z-score for [N-]=[N+]=NCc1ccccc1[C@@H]1OC(c2ccc(OCCCO)cc2)=N[C@]1(Cc1ccccc1)C(=O)NCc1ccccc1 ? 0.872

Quick one: composite z-score for C=CCNC(=O)[C@@H]1[C@H]2C(=O)O[C@H](c3ccccc3)[C@H](c3ccccc3)N2[C@H](c2ccc(O)cc2)[C@@]12C(=O)Nc1ccc(C#CC3(O)CCCCCC3)cc12 ? 0.994

Quick one: composite z-score for COCCOC(=O)N1C(=O)[C@@]2(c3cc(C#CCCO)ccc31)[C@H](c1ccccc1OCCO)N1[C@H](c3ccccc3)[C@H](c3ccccc3)OC(=O)[C@H]1[C@@H]2C(=O)N1CCc2cc(OC)c(OC)cc2C1 ? 1.54

Quick one: composite z-score for CO[C@H]1O[C@H](CO)[C@@H](OC(=O)Nc2ccc(C(F)(F)F)cc2)[C@H](OC(=O)Nc2ccccc2-c2ccccc2)[C@H]1OC(=O)Nc1ccccc1-c1ccccc1 ? 1.54

Quick one: composite z-score for CC(=O)n1cc(C(O)C2C=CC3C(=O)N(c4ccccc4)C(=O)C3N2Nc2ccccc2F)c2ccccc21 (configuration not stated) ? 0.799
